Where these numbers come from: IntAct's records for PubMed 31552791

B1: Ras-related protein Rab-38 (Homo sapiens), P57729 (parent)
chain: MQAPHKEHLYKLLVIGDLGVGKTSIIKRYVHQNFSSHYRATIGVDFALKVLHWDPETVVRLQLWDIAGQERFGNMTRVYYREAMGAFIVFDVTRPATFEAVAKWKNDLDSKLSLPNGKPVSVVLLANKCDQGKDVLMNNGLKMDQFCKEHGFVGWFETSAKENINIDEASRCLVKHILANECDLMESIEPDVVKPHLTSTKVASCSGCAKS

Variants of: B1
Conditions: with lrrk2_human LRRK2, Q5S007
Sequence (Q5S007 whole entry): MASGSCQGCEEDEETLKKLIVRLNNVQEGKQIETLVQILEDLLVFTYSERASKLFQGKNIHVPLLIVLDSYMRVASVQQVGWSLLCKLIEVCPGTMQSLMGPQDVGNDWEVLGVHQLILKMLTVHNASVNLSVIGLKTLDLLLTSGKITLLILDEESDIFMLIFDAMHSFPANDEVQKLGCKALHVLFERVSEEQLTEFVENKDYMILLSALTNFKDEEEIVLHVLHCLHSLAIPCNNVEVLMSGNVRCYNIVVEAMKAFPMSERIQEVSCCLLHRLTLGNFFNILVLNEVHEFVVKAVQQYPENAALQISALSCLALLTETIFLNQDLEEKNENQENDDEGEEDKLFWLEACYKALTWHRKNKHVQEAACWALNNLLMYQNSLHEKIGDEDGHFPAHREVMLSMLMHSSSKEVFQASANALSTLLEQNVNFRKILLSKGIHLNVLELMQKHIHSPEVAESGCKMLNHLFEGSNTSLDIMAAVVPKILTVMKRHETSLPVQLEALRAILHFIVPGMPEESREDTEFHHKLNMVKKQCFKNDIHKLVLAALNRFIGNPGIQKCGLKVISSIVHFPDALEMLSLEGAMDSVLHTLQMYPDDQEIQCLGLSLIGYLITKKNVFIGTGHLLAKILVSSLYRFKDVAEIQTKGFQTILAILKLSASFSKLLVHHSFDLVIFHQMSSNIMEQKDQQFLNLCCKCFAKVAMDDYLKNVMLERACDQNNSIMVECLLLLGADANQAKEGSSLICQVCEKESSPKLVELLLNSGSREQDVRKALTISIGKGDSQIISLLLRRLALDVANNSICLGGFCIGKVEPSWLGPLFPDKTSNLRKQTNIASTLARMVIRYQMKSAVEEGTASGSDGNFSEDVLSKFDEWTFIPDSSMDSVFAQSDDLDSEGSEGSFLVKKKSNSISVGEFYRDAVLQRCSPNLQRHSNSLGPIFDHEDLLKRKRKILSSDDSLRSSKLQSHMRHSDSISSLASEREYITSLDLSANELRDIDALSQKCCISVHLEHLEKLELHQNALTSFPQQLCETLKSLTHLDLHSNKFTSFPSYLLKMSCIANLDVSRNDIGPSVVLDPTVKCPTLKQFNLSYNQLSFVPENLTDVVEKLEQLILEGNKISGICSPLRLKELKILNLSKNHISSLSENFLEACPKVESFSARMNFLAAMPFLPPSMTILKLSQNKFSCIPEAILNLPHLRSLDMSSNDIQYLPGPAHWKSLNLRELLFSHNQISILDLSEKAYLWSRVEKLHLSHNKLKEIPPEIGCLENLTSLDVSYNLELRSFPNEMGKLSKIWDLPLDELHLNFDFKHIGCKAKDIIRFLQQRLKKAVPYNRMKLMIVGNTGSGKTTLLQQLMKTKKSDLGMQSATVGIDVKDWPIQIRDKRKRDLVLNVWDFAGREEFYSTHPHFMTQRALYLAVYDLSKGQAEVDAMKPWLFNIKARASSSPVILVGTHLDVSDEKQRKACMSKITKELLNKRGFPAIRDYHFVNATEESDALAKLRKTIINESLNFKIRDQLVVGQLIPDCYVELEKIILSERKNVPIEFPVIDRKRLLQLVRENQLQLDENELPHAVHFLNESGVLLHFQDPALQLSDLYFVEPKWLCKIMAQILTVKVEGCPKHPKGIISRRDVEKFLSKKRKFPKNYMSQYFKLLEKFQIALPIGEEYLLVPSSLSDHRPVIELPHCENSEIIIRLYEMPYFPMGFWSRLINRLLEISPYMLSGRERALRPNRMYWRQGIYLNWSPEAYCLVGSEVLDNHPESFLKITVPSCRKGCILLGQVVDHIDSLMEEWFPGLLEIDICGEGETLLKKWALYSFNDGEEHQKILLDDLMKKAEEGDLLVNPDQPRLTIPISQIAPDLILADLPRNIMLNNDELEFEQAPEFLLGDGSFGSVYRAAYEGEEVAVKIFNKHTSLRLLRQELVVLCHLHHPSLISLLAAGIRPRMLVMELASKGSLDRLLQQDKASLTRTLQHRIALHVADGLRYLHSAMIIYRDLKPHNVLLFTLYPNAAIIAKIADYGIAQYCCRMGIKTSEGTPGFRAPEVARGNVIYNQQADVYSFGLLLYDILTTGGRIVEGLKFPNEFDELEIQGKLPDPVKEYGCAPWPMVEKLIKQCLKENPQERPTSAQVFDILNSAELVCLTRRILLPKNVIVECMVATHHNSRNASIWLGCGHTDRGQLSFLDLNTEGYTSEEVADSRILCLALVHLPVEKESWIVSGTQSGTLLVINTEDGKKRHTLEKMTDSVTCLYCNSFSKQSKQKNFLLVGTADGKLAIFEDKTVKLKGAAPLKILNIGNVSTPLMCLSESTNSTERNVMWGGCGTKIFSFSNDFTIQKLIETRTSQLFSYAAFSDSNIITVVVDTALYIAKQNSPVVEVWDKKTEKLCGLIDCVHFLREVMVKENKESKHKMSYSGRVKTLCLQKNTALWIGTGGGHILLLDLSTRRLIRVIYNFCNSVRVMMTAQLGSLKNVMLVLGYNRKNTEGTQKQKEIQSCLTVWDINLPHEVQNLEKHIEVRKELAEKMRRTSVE
reported_property: effect of a mutation on the interaction

{"columns": ["mutant_designation", "value_observed"],
 "data": [
  ["I42A", "with no effect"],
  ["I42E", "with no effect"],
  ["R77Q;R81Q", "with no effect"]
]}
